meta.source: ChEMBL document CHEMBL3885861

- Species: Rattus norvegicus
- Measurement protocol: Open TG-GATES - Regimen: Daily Repeat
- Assay type: toxicity, organism-based, Sprague-Dawley
- Set-up: regimen Daily Repeat, gender Male, age 6 weeks
- Assay conditions: in vivo, po, 0 mg/kg, […], tissue Plasma, route gavage, dose level Control, time 14 day
Observation type: CRE (mg/dL)

>  <Compound>
COC1=CC(=O)C[C@@H](C)[C@]12Oc1c(Cl)c(OC)cc(OC)c1C2=O [GRISEOFULVIN]

>  <Measured value>
0.5

$$$$
>  <Compound>
NNC(=O)c1ccncc1 [ISONIAZID]

>  <Measured value>
0.6

$$$$
>  <Compound>
CCOc1ccc(NC(=O)CC(C)O)cc1 (stereo not given) [BUCETIN]

>  <Measured value>
0.2

$$$$
>  <Compound>
O=C(CCCN1CCC(O)(c2ccc(Cl)cc2)CC1)c1ccc(F)cc1 [HALOPERIDOL]

>  <Measured value>
0.5

$$$$
>  <Compound>
COc1ccc2[nH]c([S+]([O-])Cc3ncc(C)c(OC)c3C)nc2c1 (stereo not given) [OMEPRAZOLE]

>  <Measured value>
0.5

$$$$

###

- Organism: Rattus norvegicus
- Measurement protocol: Open TG-GATES - Regimen: Single
- Assay type: toxicity, organism-based, Sprague-Dawley
- Design: regimen Single, gender Male, age 6 weeks
- Assay conditions: in vivo, po, 0 mg/kg, 6 h, tissue Blood, route gavage, dose level Control

>  <Compound>
CN1C(=O)CN=C(c2ccccc2)c2cc(Cl)ccc21 [DIAZEPAM]

>  <Eos [%]>
0.6

$$$$
>  <Compound>
CC(C)OC(=O)C(C)(C)Oc1ccc(C(=O)c2ccc(Cl)cc2)cc1 [FENOFIBRATE]

>  <Eos [%]>
0.8

$$$$
>  <Compound>
NC(N)=Nc1nc(CSCCC(N)=NS(N)(=O)=O)cs1 [FAMOTIDINE]

>  <Eos [%]>
0.8

$$$$
>  <Compound>
CN(C)CCCN1c2ccccc2CCc2ccccc21 [IMIPRAMINE]

>  <Eos [%]>
0.8

$$$$
>  <Compound>
Cc1ccc(C)c(OCCCC(C)(C)C(=O)O)c1 [GEMFIBROZIL]

>  <Eos [%]>
0.8

$$$$

###

- Organism: Rattus norvegicus
- Measurement protocol: Open TG-GATES - Regimen: Single
- Assay type: toxicity, organism-based, Sprague-Dawley
- Parameters: regimen Single, gender Male, age 6 weeks
- Assay conditions: in vivo, po, 300 mg/kg, 24 h, tissue Plasma, route gavage, dose level Middle

>  <Compound>
COC1=CC(=O)C[C@@H](C)[C@]12Oc1c(Cl)c(OC)cc(OC)c1C2=O

>  <Result units>
meq/L

>  <Cl>
103.8

$$$$
>  <Compound>
CCOC(=O)CCC(=O)O[C@H]1[C@H](O[C@@H]2[C@@H](C)[C@H](O[C@H]3C[C@@](C)(OC)[C@@H](O)[C@H](C)O3)[C@@H](C)C(=O)O[C@H](CC)[C@@](C)(O)[C@H](O)[C@@H](C)C(=O)[C@H](C)C[C@@]2(C)O)O[C@H](C)C[C@@H]1N(C)C [ERYTHROMYCIN ETHYLSUCCINATE]

>  <Result units>
meq/L

>  <Cl>
106.8

$$$$
>  <Compound>
COc1ccc2[nH]c([S+]([O-])Cc3ncc(C)c(OC)c3C)nc2c1 (centres undefined)

>  <Result units>
meq/L

>  <Cl>
101

$$$$
>  <Compound>
NC(N)=Nc1nc(CSCCC(N)=NS(N)(=O)=O)cs1

>  <Result units>
meq/L

>  <Cl>
103.6

$$$$

###

- Organism: Rattus norvegicus
- Measurement protocol: Open TG-GATES - Regimen: Daily Repeat
- Type: toxicity, organism-based, Sprague-Dawley
- Design: regimen Daily Repeat, gender Male, age 6 weeks
- Assay conditions: in vivo, po, 1000 mg/kg, […], tissue Plasma, route gavage, dose level High, time 7 day
// values below are reported TC
Observation type: TC (mg/dL)

>  <Compound>
COC1=CC(=O)C[C@@H](C)[C@]12Oc1c(Cl)c(OC)cc(OC)c1C2=O

>  <Observation type>
TC

>  <Measured value>
76.4

$$$$
>  <Compound>
CCOC(=O)CCC(=O)O[C@H]1[C@H](O[C@@H]2[C@@H](C)[C@H](O[C@H]3C[C@@](C)(OC)[C@@H](O)[C@H](C)O3)[C@@H](C)C(=O)O[C@H](CC)[C@@](C)(O)[C@H](O)[C@@H](C)C(=O)[C@H](C)C[C@@]2(C)O)O[C@H](C)C[C@@H]1N(C)C [ERYTHROMYCIN ETHYLSUCCINATE]

>  <Observation type>
TC

>  <Measured value>
84.8

$$$$
>  <Compound>
CC(C)OC(=O)C(C)(C)Oc1ccc(C(=O)c2ccc(Cl)cc2)cc1 [FENOFIBRATE]

>  <Observation type>
TC

>  <Measured value>
65.8

$$$$

###

- Species on record: Rattus norvegicus
- Measurement protocol: Open TG-GATES - Regimen: Single
- Type: toxicity, organism-based, Sprague-Dawley
- Set-up: regimen Single, gender Male, age 6 weeks
- Assay conditions: in vivo, po, 100 mg/kg, 24 h, tissue Plasma, route gavage, dose level High

>  <Structure string>
CN(C)CCCN1c2ccccc2CCc2ccc(Cl)cc21

>  <RALB (g/dL)>
2.7

$$$$
>  <Structure string>
CN(C)CCCN1c2ccccc2CCc2ccccc21

>  <RALB (g/dL)>
2.6

$$$$
>  <Structure string>
CN(C)CCN(Cc1cccs1)c1ccccn1

>  <RALB (g/dL)>
2.9

$$$$
>  <Structure string>
CC1=C(/C=C/C(C)=C/C=C/C(C)=C/CO)C(C)(C)CCC1

>  <RALB (g/dL)>
3

$$$$

###

- Species on record: Rattus norvegicus
- Measurement protocol: Open TG-GATES - Regimen: Daily Repeat
- Format: toxicity, organism-based, Sprague-Dawley
- Set-up: regimen Daily Repeat, gender Male, age 6 weeks
- Assay conditions: in vivo, po, 100 mg/kg, […], tissue Kidney, route gavage, dose level Low, time 14 day
// values below are reported KIDNEY_TOTAL

>  <Compound>
CCOc1ccc(NC(=O)CC(C)O)cc1 (stereo not given)

>  <KIDNEY_TOTAL, g>
2.5

$$$$
>  <Compound>
CCOC(=O)CCC(=O)O[C@H]1[C@H](O[C@@H]2[C@@H](C)[C@H](O[C@H]3C[C@@](C)(OC)[C@@H](O)[C@H](C)O3)[C@@H](C)C(=O)O[C@H](CC)[C@@](C)(O)[C@H](O)[C@@H](C)C(=O)[C@H](C)C[C@@]2(C)O)O[C@H](C)C[C@@H]1N(C)C [ERYTHROMYCIN ETHYLSUCCINATE]

>  <KIDNEY_TOTAL, g>
2.5

$$$$
>  <Compound>
COC1=CC(=O)C[C@@H](C)[C@]12Oc1c(Cl)c(OC)cc(OC)c1C2=O

>  <KIDNEY_TOTAL, g>
2.4

$$$$
>  <Compound>
NC(N)=Nc1nc(CSCCC(N)=NS(N)(=O)=O)cs1

>  <KIDNEY_TOTAL, g>
2.5

$$$$
>  <Compound>
COc1ccc2[nH]c([S+]([O-])Cc3ncc(C)c(OC)c3C)nc2c1 (stereo not given)

>  <KIDNEY_TOTAL, g>
2.5

$$$$

###

// values below are reported Plat
- Species on record: Rattus norvegicus
- Measurement protocol: Open TG-GATES - Regimen: Single
- Type: toxicity, organism-based, Sprague-Dawley
- Design: regimen Single, gender Male, age 6 weeks
- Assay conditions: in vivo, po, 30 mg/kg, 3 h, tissue Blood, route gavage, dose level Middle

>  <Structure string>
CN(C)CCCN1c2ccccc2CCc2ccccc21

>  <Result units>
x10_4/uL

>  <Plat>
106.2

$$$$
>  <Structure string>
CC1=C(/C=C/C(C)=C/C=C/C(C)=C/CO)C(C)(C)CCC1

>  <Result units>
x10_4/uL

>  <Plat>
124.8

$$$$
>  <Structure string>
CN(C)CCCN1c2ccccc2CCc2ccc(Cl)cc21

>  <Result units>
x10_4/uL

>  <Plat>
115.5

$$$$
>  <Structure string>
CN(C)CCN(Cc1cccs1)c1ccccn1

>  <Result units>
x10_4/uL

>  <Plat>
115.9

$$$$

###

- Species on record: Rattus norvegicus
- Measurement protocol: Open TG-GATES - Regimen: Single
- Assay type: toxicity, organism-based, Sprague-Dawley
- Set-up: regimen Single, gender Male, age 6 weeks
- Assay conditions: in vivo, po, 30 mg/kg, 24 h, tissue Plasma, route gavage, dose level Middle
Observation type: LDH (IU/L)

>  <Structure string>
CN(C)CCN(Cc1cccs1)c1ccccn1

>  <Measured value>
254.8

$$$$
>  <Structure string>
CN(C)CCCN1c2ccccc2CCc2ccccc21

>  <Measured value>
101.8

$$$$
>  <Structure string>
CN(C)CCCN1c2ccccc2CCc2ccc(Cl)cc21

>  <Measured value>
93.8

$$$$
>  <Structure string>
CC1=C(/C=C/C(C)=C/C=C/C(C)=C/CO)C(C)(C)CCC1

>  <Measured value>
242.4

$$$$
